Target: IL33 and ST2 binding (Homo sapiens)
Sequence (O95760 112-270 limits assumed): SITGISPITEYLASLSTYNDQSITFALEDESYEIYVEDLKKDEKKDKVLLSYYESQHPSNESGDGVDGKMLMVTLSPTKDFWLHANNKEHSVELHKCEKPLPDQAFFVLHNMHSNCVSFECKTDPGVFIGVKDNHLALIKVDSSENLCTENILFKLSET
Details: 100 µM
Listed below: inhibition values for each entry.
measuredQuantity: inhibition (%)

>>> recordedmeasurement("CCOC(=O)c1nc(-c2ccc(Cl)cc2)oc1-c1ccccc1")
110
>>> recordedmeasurement("CCOC(=O)c1nc(-c2ccc(F)cc2)oc1-c1ccccc1[N+](=O)[O-]")
105
>>> recordedmeasurement("CN(C)CCNC(=O)c1nc(-c2ccc(OC(F)(F)F)cc2)oc1-c1ccccc1")
14
>>> recordedmeasurement("CN(C)CCNC(=O)c1nc(-c2cccc(F)c2)oc1-c1ccccc1[N+](=O)[O-]")
-16
>>> recordedmeasurement("CCOC(=O)c1nc(-c2ccc3ccccc3c2)oc1-c1ccccc1")
42

====

Reported inhibition values are given for each entry in this list.
target: IL33 and ST2 binding (Homo sapiens); details: 100 µM
measuredQuantity: inhibition

>>> recordedmeasurement("CN(C)CCNC(=O)c1nc(-c2ccc3ccccc3c2)oc1-c1ccccc1[N+](=O)[O-]")
"1%"
>>> recordedmeasurement("CCOC(=O)c1nc(-c2ccc(C(F)(F)F)cc2)oc1-c1ccccc1")
"109%"
>>> recordedmeasurement("CN1CCN(CCNC(=O)c2nc(-c3ccc4ccccc4c3)oc2-c2ccccc2[N+](=O)[O-])CC1")
"23%"
>>> recordedmeasurement("CN1CCN(CCNC(=O)c2nc(-c3ccc(-c4ccccc4)cc3)oc2-c2ccccc2[N+](=O)[O-])CC1")
"49%"
>>> recordedmeasurement("CN1CCN(CCNC(=O)c2nc(-c3ccc(C#N)cc3)oc2-c2ccccc2[N+](=O)[O-])CC1")
"19%"
>>> recordedmeasurement("O=C(Nc1ccc(OCc2ccccc2)cc1)c1nc(-c2ccc(C(F)(F)F)cc2)oc1-c1ccccc1[N+](=O)[O-]")
"13%"
>>> recordedmeasurement("CCCNC(=O)c1nc(-c2ccc(C(F)(F)F)cc2)oc1-c1cccc(SC)c1")
"112%"
>>> recordedmeasurement("O=C(NCCN1CCCC1)c1nc(-c2ccc(C(F)(F)F)cc2)oc1-c1ccccc1[N+](=O)[O-]")
"13%"
>>> recordedmeasurement("O=C(NCCc1ccc(O)cc1)c1nc(-c2ccc(C(F)(F)F)cc2)oc1-c1ccccc1")
"37%"
>>> recordedmeasurement("O=C(NCCc1ccc(O)cc1)c1nc(-c2ccc(C(F)(F)F)cc2)oc1-c1ccccc1[N+](=O)[O-]")
"36%"
>>> recordedmeasurement("CN1CCN(CCNC(=O)c2nc(-c3cccc(Cl)c3)oc2-c2ccccc2[N+](=O)[O-])CC1")
"-6%"
>>> recordedmeasurement("CCOC(=O)c1nc(-c2ccc(C(F)(F)F)cc2)oc1-c1ccc(N(C(C)=O)C(C)=O)cc1")
"-2%"
>>> recordedmeasurement("CN(C)CCN1CCN(C(=O)c2coc(-c3ccc(C(F)(F)F)cc3)n2)CC1")
"26%"
>>> recordedmeasurement("CN(C)CCNC(=O)c1nc(-c2ccc(C#N)cc2)oc1-c1ccccc1[N+](=O)[O-]")
"-21%"
>>> recordedmeasurement("CS(=O)(=O)NCCNC(=O)c1nc(-c2ccc(C(F)(F)F)cc2)oc1-c1ccccc1[N+](=O)[O-]")
"50%"
>>> recordedmeasurement("CC(=O)Nc1ccc(NC(=O)c2nc(-c3ccc(C(F)(F)F)cc3)oc2-c2ccccc2[N+](=O)[O-])cc1")
"53%"
>>> recordedmeasurement("O=C(c1nc(-c2ccc(C(F)(F)F)cc2)oc1-c1ccccc1[N+](=O)[O-])N1CCN(CCN2CCOCC2)CC1")
"48%"
>>> recordedmeasurement("CCOC(=O)c1nc(-c2ccc(F)c(F)c2)oc1-c1ccccc1")
"41%"
>>> recordedmeasurement("CCOC(=O)c1nc(-c2ccc(OC)cc2)oc1-c1ccccc1")
"65%"
>>> recordedmeasurement("COc1ccc(-c2nc(C(=O)NCCN(C)C)c(-c3ccc([N+](=O)[O-])cc3)o2)cc1")
"-51%"
>>> recordedmeasurement("CN(C)CCNC(=O)c1nc(-c2ccc(N(C)C)cc2)oc1-c1ccccc1")
"8%"
>>> recordedmeasurement("CN(C)CCNC(=O)c1nc(-c2ccc(Cl)cc2)oc1-c1ccccc1")
"38%"
>>> recordedmeasurement("CN1CCN(CCNC(=O)c2nc(-c3ccc(F)c(F)c3)oc2-c2ccccc2)CC1")
"3%"
>>> recordedmeasurement("CS(=O)(=O)N1CCN(CCNC(=O)c2nc(-c3ccc(C(F)(F)F)cc3)oc2-c2ccccc2[N+](=O)[O-])CC1")
"46%"
>>> recordedmeasurement("CN(C)CCNC(=O)c1nc(-c2ccc(N(C)C)cc2)oc1-c1ccccc1[N+](=O)[O-]")
"-10%"
>>> recordedmeasurement("O=C(c1nc(-c2ccc(C(F)(F)F)cc2)oc1-c1ccccc1[N+](=O)[O-])N1CCN(CCN2CCCC2)CC1")
"2%"
>>> recordedmeasurement("CNC(=O)c1nc(-c2ccc(C(F)(F)F)cc2)oc1-c1cccc(SC)c1")
"112%"
>>> recordedmeasurement("CN(C)CCNC(=O)c1nc(-c2ccc(F)c(F)c2)oc1-c1ccccc1")
"5%"
>>> recordedmeasurement("CCOC(=O)c1coc(-c2ccc(SC)cc2)n1")
"45%"
>>> recordedmeasurement("O=C(c1nc(-c2ccc(C(F)(F)F)cc2)oc1-c1ccccc1[N+](=O)[O-])N1CCC(c2ccccc2)CC1")
"11%"
>>> recordedmeasurement("CN1CCN(CCNC(=O)c2nc(-c3cccc(C(F)(F)F)c3)oc2-c2ccccc2[N+](=O)[O-])CC1")
"31%"

====

target: IL33 and ST2 binding (Homo sapiens); details: 100 µM
measuredQuantity: inhibition (%)

>>> recordedmeasurement("CN(C)CCNC(=O)c1nc(-c2ccc(C3CC3)cc2)oc1-c1ccccc1")
4
>>> recordedmeasurement("CN1CCN(CCNC(=O)c2nc(-c3cccc(F)c3)oc2-c2ccccc2[N+](=O)[O-])CC1")
38
>>> recordedmeasurement("CCOC(=O)c1nc(-c2ccc(C(C)(C)C)cc2)oc1-c1ccc(N(C(C)=O)C(C)=O)cc1")
26
>>> recordedmeasurement("CCOC(=O)c1nc(-c2ccc(C(F)(F)F)cc2)oc1-c1ccc(N)cc1")
-24

====

Measured inhibition, listed per entry.
Target: IL33 and ST2 binding (Homo sapiens)
Sequence (O95760 112-270 limits assumed): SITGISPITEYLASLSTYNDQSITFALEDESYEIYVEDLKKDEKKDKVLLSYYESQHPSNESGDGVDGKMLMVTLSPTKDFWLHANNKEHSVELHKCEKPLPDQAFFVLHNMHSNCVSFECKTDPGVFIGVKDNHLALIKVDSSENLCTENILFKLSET
Conditions: 100 µM
measuredQuantity: inhibition

>>> recordedmeasurement("O=C(NCCN1CCNCC1)c1nc(-c2cc(F)cc(F)c2)oc1-c1ccccc1[N+](=O)[O-] [Compound 283]")
"49%"
>>> recordedmeasurement("CN1CCN(CCNC(=O)c2nc(-c3cccc(OC(F)(F)F)c3)oc2-c2ccccc2)CC1 [Compound 200]")
"0%"
>>> recordedmeasurement("CCOC(=O)c1nc(-c2ccc(F)cc2)oc1-c1ccccc1 [Compound 67]")
"15%"
>>> recordedmeasurement("CCOC(=O)c1nc(-c2cccc(OC(F)(F)F)c2)oc1-c1ccccc1 [Compound 56]")
"93%"
>>> recordedmeasurement("O=C(NCCCN1CCCC1)c1nc(-c2ccc(C(F)(F)F)cc2)oc1-c1ccccc1[N+](=O)[O-] [Compound 140]")
"15%"
>>> recordedmeasurement("CN(C)CCNC(=O)c1nc(-c2cccc(C(F)(F)F)c2)oc1-c1ccccc1 [Compound 121]")
"-18%"
>>> recordedmeasurement("CCOC(=O)c1nc(-c2cccc(C(F)(F)F)c2)oc1-c1ccccc1[N+](=O)[O-] [Compound 30]")
"102%"
>>> recordedmeasurement("COc1ccc(-c2nc(C(=O)N3CCN(CCN(C)C)CC3)c(-c3ccc([N+](=O)[O-])cc3)o2)cc1 [Compound 218]")
"39%"

====

biological target: IL33 and ST2 binding (Homo sapiens, UniProt O95760); conditions: 100 µM;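 further: plate ELISA with coated Flag-tagged human IL-33 and His-tagged human ST2, bound ST2 detected by anti-His HRP and TMB absorbance at 450 nm, 2 h compound incubation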
In this section we review reported inhibition values for a set of molecules.
measuredQuantity: inhibition (%)

>>> recordedmeasurement("CN1CCN(CCNC(=O)c2nc(-c3ccc4ccccc4c3)oc2-c2ccccc2)CC1")
49
>>> recordedmeasurement("O=C(NCCN1CCCCC1)c1nc(-c2ccc(C(F)(F)F)cc2)oc1-c1ccccc1[N+](=O)[O-]")
60
>>> recordedmeasurement("CN1CCN(CCNC(=O)c2nc(-c3ccc(N(C)C)cc3)oc2-c2ccccc2)CC1")
33
>>> recordedmeasurement("CN(C)CCNC(=O)c1nc(-c2cc(F)cc(F)c2)oc1-c1ccccc1")
36

Reference source for all entries: patent US20240287052A1
